# Test System: AKT1 (RAC-alpha serine/threonine-protein kinase) (Homo sapiens, UniProt P31749)
# Sequence (P31749 whole entry): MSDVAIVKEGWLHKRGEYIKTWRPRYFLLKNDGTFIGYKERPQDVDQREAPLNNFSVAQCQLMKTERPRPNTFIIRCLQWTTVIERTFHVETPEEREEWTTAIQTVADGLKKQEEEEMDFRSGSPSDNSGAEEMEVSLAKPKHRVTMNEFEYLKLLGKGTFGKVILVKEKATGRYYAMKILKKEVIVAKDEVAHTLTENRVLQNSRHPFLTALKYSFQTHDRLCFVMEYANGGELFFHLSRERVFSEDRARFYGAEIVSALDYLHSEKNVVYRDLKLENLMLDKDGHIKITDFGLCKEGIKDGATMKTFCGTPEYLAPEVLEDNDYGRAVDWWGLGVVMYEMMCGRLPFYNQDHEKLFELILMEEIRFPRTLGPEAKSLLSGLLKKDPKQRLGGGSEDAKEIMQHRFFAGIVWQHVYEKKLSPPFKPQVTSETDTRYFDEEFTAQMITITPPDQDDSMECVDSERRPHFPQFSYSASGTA
# Experiment Description: SPR (Biacore 8K+, CM7 chip, purchased AKT1 protein MCE HY-P74421)
Property Name: pKd
Scale for pKd: -log10 of concentration given in mol/L; no unit attached.

So what pKd did CN1C(=O)[C@@H](O)[C@H](c2ccccc2)[C@@H]1[C@@H](O)c1ccccc1 [L-Clausenamide] get with AKT1 (RAC-alpha serine/threonine-protein kinase) (Homo sapiens, UniProt P31749)?
4.99

These data points were gathered from paper PMC12292302.
